- Run description: gradient 5% acetonitrile 3 min, to 50% in 2 min, to 85% in 15 min, held 3 min, 100 µL/min
- Setup conditions: column: Zorbax Extend-C18 2.1 x 50 mm; eluents: water / acetonitrile, 0.1% formic acid
Measure: RP-LC retention time (s)

>>> print(df.to_string())
                            compound_smiles  unit_text  result_number
0  O=C(CN1CCN(Cc2ccc(F)cc2)C(=O)C1=O)N1CCN(Cc2ccccc2)CC1          s            603
1  Fc1ccc(OCc2cn(C3CN(Cc4ccc(F)cc4F)C3)nn2)cc1          s            703
2        COc1cccc(CC(=O)N2CCc3nc[nH]c3C2)c1          s            572

###

- Run description: gradient 5% acetonitrile 3 min, to 50% in 2 min, to 85% in 15 min, held 3 min, 100 µL/min
- Setup conditions: column: Zorbax Extend-C18 2.1 x 50 mm; eluents: water / acetonitrile, 0.1% formic acid
Measure: RP-LC retention time (s)

                                   compound               measure  result_number
0           Cc1noc(-c2cccn2Cc2ccc(Cl)cc2)n1  RP-LC retention time           1090
1  CCCc1nc(-c2c(C)cc(C)nc2NC(=O)c2cc(C)ccc2C)no1  RP-LC retention time            946
2  C[C@H]1CN(C(=O)c2cc(Cl)ccc2F)C[C@@H]1c1nc(-c2ccncc2)no1  RP-LC retention time            857

I = CC1CCCCN1CCNC(=O)c1cc(S(=O)(=O)N2CCCCC2)ccc1Cl (configuration not stated)
II = Cc1ccc(CNC(=O)c2nnc(-c3ccc(S(=O)(=O)N4CCCC4)cc3)o2)cc1
Higher RP-LC retention time: I or II ? Write the label of whichever entry you select.
II
(II: 940 s, I: 651 s)

###

- Run description: gradient 5% acetonitrile 3 min, to 50% in 2 min, to 85% in 15 min, held 3 min, 100 µL/min
- Setup conditions: column: Zorbax Extend-C18 2.1 x 50 mm; eluents: water / acetonitrile, 0.1% formic acid
Measure: RP-LC retention time (s)

>>> print(df.to_string())
                                   compound  result_number
0   CC(C)c1nnc2n1CCN(C(=O)COc1ccc(Cl)cc1)C2            692
1  COCCNc1c(-c2cccc(F)c2)nc2sc(C(N)=O)c(C)n12            696

1 = CSc1cccc(NC(=O)N2CCc3nc(CNC(=O)C4CCC4)n(C)c3C2)c1
2 = O=C(NCC1OCCc2ccccc21)C(=O)Nc1ccccc1 (stereo unspecified)
Higher RP-LC retention time: 1 or 2 ? Write the label of whichever entry you select.
2

###

- Run description: gradient 5% acetonitrile 3 min, to 50% in 2 min, to 85% in 15 min, held 3 min, 100 µL/min
- Setup conditions: column: Zorbax Extend-C18 2.1 x 50 mm; eluents: water / acetonitrile, 0.1% formic acid
Measure: RP-LC retention time (s)

// worked examples, RP-LC retention time included
                                   compound  result_number
0  Cc1nc(Nc2ncc3c(n2)CC(c2ccc(F)cc2)CC3=O)nc2ccccc12 (stereo unspecified)            756
1  CC(C)Oc1ccc(-c2noc(-c3nn(-c4ccc(Cl)cc4)ccc3=O)n2)cc1           1060
2  COCCNC(=O)CC1Sc2ncccc2N(CC(C)C)C1=O (stereo unspecified)            659
3  OC(COCCOc1c(F)cc(Br)cc1F)CSc1ccccn1 (stereo unspecified)            934
4  COc1ccc2c(c1)C1(CCN(C(=O)NC(C)C)C1)C(=O)N2C (stereo unspecified)            681
5  Cc1cccc(-c2nc(C3CCN(C(=O)C(NC(=O)c4ccco4)C(C)C)CC3)no2)c1 (stereo unspecified)           1010
6  O=C(NC1CCNCC1)c1[nH]ncc1NC(=O)c1c(Cl)cccc1Cl            639
7  Cc1c(-c2noc(-c3ccc(F)c(F)c3)n2)nnn1Cc1ccccc1           1090

A = COC(=O)c1c(C)[nH]c(C(=O)N2CCCC(C(=O)N3CCC(C)CC3)C2)c1C (stereo unspecified)
B = CCCN1C(=O)COc2ccc(-c3noc(COc4ccc(OC)cc4)n3)cc21
Please indicate which has the smaller reported RP-LC retention time: A , or B . Write the label of whichever entry you select.
A

A = COc1ccc(-c2nc(Nc3ccc(C)cc3)sc2C)cc1
B = COc1ccc(C(=O)NC2CCN(c3ccc(=O)n(C)n3)C2)c(OC)n1 (stereo unspecified)
Higher RP-LC retention time: A or B ? Write the label of whichever entry you select.
A
